Please provide measured Km for the entries that follow.
- Test system: Efa 1
- assay procedure: Kinetic parameters for Efa 1
- Assay type: biochemical, Enterococcus faecalis
- measurement setup: substrates; cofactor not given
Numbers only, in µM.

Example molecules with recorded Km:
INSERT INTO assay_data (molecule, system_name, recorded_endpoint, experimental_result) VALUES
  ('Cc1cc2nc3c(=O)[nH]c(=O)nc-3n(C[C@H](O)[C@H](O)[C@H](O)COP(=O)(O)O)c2cc1C [FMN]', 'Efa 1', 'Km', 104),
  ('NC(=O)c1cc(N2CC2)c([N+](=O)[O-])cc1[N+](=O)[O-] [CB 1954, 5-(aziridin-1-yl)-2,4-dinitrobenzamide]', 'Efa 1', 'Km', 4100),
  ('Cc1cc2nc3c(=O)[nH]c(=O)nc-3n(C[C@H](O)[C@H](O)[C@H](O)COP(=O)(O)OP(=O)(O)OC[C@H]3O[C@@H](n4cnc5c(N)ncnc54)[C@H](O)[C@@H]3O)c2cc1C [FAD]', 'Efa 1', 'Km', 134);

Looking up CC1=CC(=O)c2ccccc2C1=O [Menadione] , I found its Km recorded as 107
